molecular target: rat EP1 receptor (Rattus norvegicus, UniProt P70597); experiment: Test for confirmation of EP1 receptor antagonism (inhibition of PGE2-induced increase in intracellular calcium concentration); details: rat EP1 receptor-expressing COS-1 cells; prostaglandin E2 10 nM; fluorescent calcium indicator, FDSS 7000
Sequence (P70597 whole entry): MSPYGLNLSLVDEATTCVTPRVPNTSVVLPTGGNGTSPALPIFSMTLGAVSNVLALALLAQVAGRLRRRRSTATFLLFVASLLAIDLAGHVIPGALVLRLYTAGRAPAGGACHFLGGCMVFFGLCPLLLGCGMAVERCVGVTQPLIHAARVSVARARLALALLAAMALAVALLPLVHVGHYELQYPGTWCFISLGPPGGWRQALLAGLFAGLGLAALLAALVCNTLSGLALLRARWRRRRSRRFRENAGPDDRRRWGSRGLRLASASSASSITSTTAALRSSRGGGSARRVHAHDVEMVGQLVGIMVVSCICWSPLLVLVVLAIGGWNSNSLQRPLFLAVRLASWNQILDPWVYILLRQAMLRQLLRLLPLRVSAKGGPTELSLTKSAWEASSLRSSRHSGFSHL
property_name: IC50 (nM)

Please review the entries below; each comes with its answer.
- structure_smiles_string: "COc1ccc2c(Cc3cccc(C(=O)NS(=O)(=O)c4ccccc4)n3)c(-c3ccccc3)[nH]c2c1"
  target_or_test_system: "rat EP1 receptor (Rattus norvegicus, UniProt P70597)"
  IC50 / nM: 30
- structure_smiles_string: "COc1ccc2c(Cc3cccc(/C=C/c4nnn[nH]4)n3)c(-c3ccccc3)[nH]c2c1"
  target_or_test_system: "rat EP1 receptor (Rattus norvegicus, UniProt P70597)"
  IC50 / nM: 34
- structure_smiles_string: "COc1cc2[nH]c(-c3ccccc3)c(Cc3cccc(C(=O)NC#N)n3)c2cc1F"
  target_or_test_system: "rat EP1 receptor (Rattus norvegicus, UniProt P70597)"
  IC50 / nM: 24
- structure_smiles_string: "CCS(=O)(=O)NC(=O)c1cccc(Cc2c(C(C)(C)C)[nH]c3cc(OC)c(Cl)cc23)n1"
  target_or_test_system: "rat EP1 receptor (Rattus norvegicus, UniProt P70597)"
  IC50 / nM: 33
- structure_smiles_string: "Cc1ccc2c(Cc3cccc(C(=O)NS(C)(=O)=O)n3)c(-c3ccsc3)[nH]c2c1"
  target_or_test_system: "rat EP1 receptor (Rattus norvegicus, UniProt P70597)"
  IC50 / nM: 27
- structure_smiles_string: "COc1ccc2c(Cc3cccc(-c4noc(=O)[nH]4)n3)c(C(C)(C)C)[nH]c2c1"
  target_or_test_system: "rat EP1 receptor (Rattus norvegicus, UniProt P70597)"
  IC50 / nM: 43
- structure_smiles_string: "Cc1ccc2c(Cc3cccc(C(=O)NC#N)n3)c(-c3ccccc3)[nH]c2c1"
  target_or_test_system: "rat EP1 receptor (Rattus norvegicus, UniProt P70597)"
  IC50 / nM: 54
- structure_smiles_string: "COc1ccc2c(Cc3cccc(C(=O)NS(=O)(=O)c4ccccc4F)n3)c(C(C)(C)C)[nH]c2c1"
  target_or_test_system: "rat EP1 receptor (Rattus norvegicus, UniProt P70597)"
  IC50 / nM: 40
- structure_smiles_string: "CS(=O)(=O)NC(=O)c1cccc(Cc2c(-c3ccccc3)[nH]c3cc(C4CC4)ccc23)n1"
  target_or_test_system: "rat EP1 receptor (Rattus norvegicus, UniProt P70597)"
  IC50 / nM: 29
- structure_smiles_string: "COc1ccc2c(Cc3cccc(C(=O)NS(=O)(=O)c4ccccc4)n3)c(C(C)(C)C)[nH]c2c1"
  target_or_test_system: "rat EP1 receptor (Rattus norvegicus, UniProt P70597)"
  IC50 / nM: 17

(a) COc1ccc2c(Cc3cccc(-c4nnn[nH]4)n3)c(-c3ccccc3)[nH]c2c1
(b) Cc1cc2[nH]c(-c3ccccc3)c(Cc3cccc(-c4nnn[nH]4)n3)c2cc1C
(c) COc1ccc2c(Cc3cccc(C(=O)NS(C)(=O)=O)n3)c(-c3ccc(F)cc3)[nH]c2c1
Hi! Can you put these in order of IC50, lowest number first? Return value: ordered labels per request. a, b, c
(a: 4.7 nM, b: 20 nM, c: 88 nM)

(1) COc1ccc2c(Cc3cccc(-c4nnn[nH]4)n3)c(C3CC3)[nH]c2c1
(2) COc1ccc2c(Cc3cccc(-c4nnn[nH]4)c3)c(-c3ccccc3)[nH]c2c1
(3) COc1ccc2c(Cc3cccc(-c4nnn[nH]4)n3)c(C(C)(C)C)[nH]c2c1
Sort these compounds on IC50 so the largest reading comes first. Rank the items, then write their labels in that order. 2, 1, 3
